- ASSAY_METHOD_TEXT: In vitro melanin binding by microscale thermophoresis / initial fluorescence (Monolith NT.115 pico)
- TEST_CONTEXT: Appendix table 1; Nano or Pico detector, IF or MST mode; 68% confidence; read-out: Melanin binding affinity Kd ± confidence
PARAMETER: pKd
Just the number, please; pKd means minus log10 of the concentration in mol/L.

NS(=O)(=O)NCCc1ccc(S(=O)(=O)N2CCCC2)cc1 | 3.22

Inquiry: Requested field: pKd. Item: `NS(=O)(=O)NCc1cccc2ccccc12`
Reply text: 3.91

Inquiry: Requested field: pKd. Item: `CC(=O)Nc1nc(-c2csc(S(N)(=O)=O)c2)no1`
Reply text: 3.64

Inquiry: Requested field: pKd. Item: `NS(=O)(=O)c1ccc(-n2ncc3ccccc3c2=O)cc1`
Reply text: 3.98

Inquiry: Requested field: pKd. Item: `NS(=O)(=O)c1ccc(NN=C(c2cncc(F)c2)C2CC2)cc1`
Reply text: 3.94

Inquiry: Requested field: pKd. Item: `NS(=O)(=O)c1ccc(-c2ncc(C(=O)N3CCNCC3)o2)s1`
Reply text: 3.78

====

- MEASURED_ON: human carbonic anhydrase II (Homo sapiens, UniProt P00918)
- Construct: purchased Sigma
- ASSAY_METHOD_TEXT: Multiparametric surface plasmon resonance (MP-SPR) interaction kinetics with immobilized hCAII
- Format: binding
- TEST_CONTEXT: MP-SPR, 25 °C, 1:1 model
PARAMETER: ka

Known results for compounds:
CC(=NNc1ccc(S(N)(=O)=O)cc1)c1cncc(Br)c1 [A19] | 0.15 ± 0.04 10^6 M^–1 s^–1
CC(=NNc1ccc(S(N)(=O)=O)cc1)c1nccnc1C [A05] | 0.61 ± 0.25 10^6 M^–1 s^–1

Inquiry: Requested field: ka. Item: NS(=O)(=O)c1ccc(NN=C(c2cncc(F)c2)C2CC2)cc1 [A07]
Reply text: 0.24 ± 0.05 10^6 M^–1 s^–1

====

- MEASURED_ON: human carbonic anhydrase II (Homo sapiens)
- Construct: purchased Sigma
- ASSAY_METHOD_TEXT: Multiparametric surface plasmon resonance (MP-SPR) interaction kinetics with immobilized hCAII
- Assay type: binding
- TEST_CONTEXT: surface plasmon resonance; Appendix table 1; read-out: Kd against hCA II
PARAMETER: pKd
Just the number, please; pKd means minus log10 of the concentration in mol/L.

Inquiry: Requested field: pKd. Item: `NS(=O)(=O)c1ccc(NN=C(c2cncc(F)c2)C2CC2)cc1`
Reply text: 7.12

====

- ASSAY_METHOD_TEXT: Ocular pharmacokinetics in pigmented rats (iris-ciliary body, 3H-A01)
- Type: in vivo, rat
- TEST_CONTEXT: HsdOla/LH (pigmented), rat, topical, 7 µL of 10 mg/mL solution per eye; pigmented iris-ciliary body, 10 days; read-out: bound concentration C10 days
PARAMETER: concentration at 10 days (ng/g)
Only the number, expressed in ng/g, is required.

Inquiry: Requested field: concentration at 10 days. Item: C/C(=N\Nc1ccc(S(N)(=O)=O)cc1)c1cccnc1 [A01]
Reply text: 20

====

Entries and their pKd values follow.
- ASSAY_METHOD_TEXT: In vitro melanin binding by microscale thermophoresis / initial fluorescence (Monolith NT.115 pico)
- TEST_CONTEXT: Appendix table 1; Nano or Pico detector, IF or MST mode; 68% confidence; read-out: Melanin binding affinity Kd ± confidence
Just the number, please; pKd means minus log10 of the concentration in mol/L.

Known results for compounds:
NS(=O)(=O)c1cc(-c2noc(C3CC3)n2)cs1 | 3.35
NS(=O)(=O)c1ccc(-n2nc(-c3ccccc3)ccc2=O)cc1 | 4.11
NS(=O)(=O)N1CCc2ccccc2C1 | 2.95
Cc1cc(-n2cccn2)ccc1S(N)(=O)=O | 3.02
Cc1ccc(-c2noc(N)c2S(N)(=O)=O)cc1S(N)(=O)=O | 3.24
COc1ccc(-c2noc(-c3ccc(S(N)(=O)=O)cc3)n2)cc1OC | 4.04
NS(=O)(=O)Nc1ccc(F)cc1F | 4.04
NS(=O)(=O)Nc1cccc2ccccc12 | 2.98

Inquiry: Requested field: pKd. Item: `CN(C)CCN(Cc1ccccc1)S(N)(=O)=O`
Reply text: 2.79

Inquiry: Requested field: pKd. Item: `NS(=O)(=O)N1CCC(O)CC1`
Reply text: 3.39

Inquiry: Requested field: pKd. Item: NS(=O)(=O)NCC1CCCO1 (centres unmarked)
Reply text: 3.39

====

- ASSAY_METHOD_TEXT: In vitro melanin binding by microscale thermophoresis / initial fluorescence (Monolith NT.115 pico)
- TEST_CONTEXT: Appendix table 1; Nano or Pico detector, IF or MST mode; 68% confidence; read-out: Melanin binding affinity Kd ± confidence
PARAMETER: pKd
Just the number, please; pKd means minus log10 of the concentration in mol/L.

Known results for molecules:
NS(=O)(=O)c1ccc(-c2noc(-c3ccsc3)n2)cc1 | 3.28
CC(=NNc1ccc(S(N)(=O)=O)cc1)c1cncc(Br)c1 | 3.25
COc1cc(S(N)(=O)=O)ccc1-c1nc(-c2ccc3c(c2)OC(=O)CN3C)no1 | 2.81
COc1ccc2cnn(-c3ccc(S(N)(=O)=O)cc3)c(=O)c2c1OC | 3.85
COc1ccc(-c2ccc(=O)n(-c3ccc(S(N)(=O)=O)cc3)n2)cc1 | 3.81

Inquiry: Requested field: pKd. Item: `CCn1nc(-c2cc(S(N)(=O)=O)c(C)s2)ccc1=O`
Reply text: 3.98

Inquiry: Requested field: pKd. Item: `NS(=O)(=O)NCc1ccc(F)cc1`
Reply text: 3.44

Inquiry: Requested field: pKd. Item: `Cc1nn(-c2ccc(S(N)(=O)=O)cc2)c(=O)c2ccccc12`
Reply text: 3.69

Inquiry: Requested field: pKd. Item: `Nc1onc(-c2csc(S(N)(=O)=O)c2)c1S(N)(=O)=O`
Reply text: 2.67

Inquiry: Requested field: pKd. Item: `NS(=O)(=O)c1ccc(-n2cccn2)cc1`
Reply text: 3.69

Inquiry: Requested field: pKd. Item: `CN1CCC(NS(N)(=O)=O)CC1`
Reply text: 2.78

Inquiry: Requested field: pKd. Item: `Cc1ccccc1-c1noc(-c2ccc(S(N)(=O)=O)cc2)n1`
Reply text: 3.75

Inquiry: Requested field: pKd. Item: CC1Cc2ccccc2N1S(N)(=O)=O (stereo not shown)
Reply text: 2.77

====

- MEASURED_ON: human carbonic anhydrase II (Homo sapiens)
- Construct: purchased Sigma
- ASSAY_METHOD_TEXT: Multiparametric surface plasmon resonance (MP-SPR) interaction kinetics with immobilized hCAII
- Assay type: binding
- TEST_CONTEXT: MP-SPR, 25 °C, 1:1 model
PARAMETER: ka

C/C(=N\Nc1ccc(S(N)(=O)=O)cc1)c1cccnc1 | 0.57 ± 0.33 10^6 M^–1 s^–1

Inquiry: Requested field: ka. Item: `CC(=NNc1ccc(S(N)(=O)=O)cc1Br)c1cccnc1`
Reply text: 0.43 ± 0.25 10^6 M^–1 s^–1

Inquiry: Requested field: ka. Item: `CC(=NNc1ccc(S(N)(=O)=O)cc1)c1cnc2ccccc2n1`
Reply text: 0.13 ± 0.05 10^6 M^–1 s^–1

====

Entries and their pKd values follow.
- ASSAY_METHOD_TEXT: In vitro melanin binding by microscale thermophoresis / initial fluorescence (Monolith NT.115 pico)
- TEST_CONTEXT: Appendix table 1; Nano or Pico detector, IF or MST mode; 68% confidence; read-out: Melanin binding affinity Kd ± confidence
Just the number, please; pKd means minus log10 of the concentration in mol/L.

NS(=O)(=O)c1ccc2c(c1)Oc1ccccc1C(=O)N2C1CC1 | 3.14
NS(=O)(=O)Nc1ccc(C(F)(F)F)cc1 | 3.24

Inquiry: Requested field: pKd. Item: `NS(=O)(=O)c1ccc(-c2nc(-c3ccc(Oc4ccc(F)cc4)cc3)no2)cc1`
Reply text: 3.35
